biological target: HLA-A*0301 (human); assay: competition vs 125I probe peptide, purified HLA; conditions: remark: other sources report otherwise
pIC50: −log10 of the molar value.
parameter-measured: pIC50

binder: VVRENTSPR [Her2/neu.754.V2R9]
recorded-number: 6.70
